- method.summary: Plasma pharmacokinetics after single oral doses of RTI-336 in healthy males
- Type: in vivo, human
- condition: male, human, plasma, po, 20 mg, across 6, 12 and 20 mg single oral doses; read-out: plasma half-life (converted)
measured.property: half-life

# half-life of Cc1ccc(-c2cc([C@@H]3C4CCC(C[C@@H]3c3ccc(Cl)cc3)N4C)on2)cc1 (stereo partly shown) = ~17 h

* * *

- method.summary: Plasma pharmacokinetics after single oral doses of RTI-336 in healthy males
- Assay type: in vivo, human
- condition: male, human; plasma, single oral dose 3 mg, fasted, healthy males
measured.property: Cmax (ng/mL)
Answers are plain numbers, in ng/mL.

Data point: Cc1ccc(-c2cc([C@@H]3C4CCC(C[C@@H]3c3ccc(Cl)cc3)N4C)on2)cc1 (stereo partly shown) ; Cmax = 1.04
